// values below are reported relative % inhibition
# Tested on: P. falciparum NF54-pfs16-GFP late (IV-V) stage gametocytes
# ASSAY_TEXT: relative % inhibition of viable gametocyte number; higher = more gametocytocidal
# STATED_CONDITIONS: 0.5 µM; stage: late (IV-V) gametocyte; incubation 72 h
PARAMETER_MEASURED: relative % inhibition

MOLECULE: CCc1ccc(CNCC(O)c2ccccc2)cc1 (stereo unspecified)
PARAMETER_MEASURED: relative % inhibition
OBSERVED: 3.65%
--
MOLECULE: COc1ccc(-c2cc3c(nn2)-c2ccccc2C3=O)cc1
PARAMETER_MEASURED: relative % inhibition
OBSERVED: 87.4%
--
MOLECULE: COc1ccc(Br)cc1C1Nc2ccc3ccccc3c2C2=C1C(=O)CC(c1ccccc1)C2 (stereo unspecified)
PARAMETER_MEASURED: relative % inhibition
OBSERVED: 2.99%
--
MOLECULE: Brc1ccc(Nc2nc3ccccc3nc2Nc2ccc(Br)cc2)cc1
PARAMETER_MEASURED: relative % inhibition
OBSERVED: 55.2%
--
MOLECULE: COc1cc(-c2nc(-c3ccccc3)c(-c3ccccc3)[nH]2)cc(OC)c1O
PARAMETER_MEASURED: relative % inhibition
OBSERVED: -17%
--
MOLECULE: O=C(NC1CCN(Cc2ccccc2)CC1)c1cc2nc(-c3ccc(Cl)s3)cc(C(F)(F)F)n2n1
PARAMETER_MEASURED: relative % inhibition
OBSERVED: 21.4%
--
MOLECULE: COc1ccc(C2c3ccc4ccccc4c3Oc3ncn(CCCN(C)C)c(=N)c32)cc1 (stereo unspecified)
PARAMETER_MEASURED: relative % inhibition
OBSERVED: 108%
--
MOLECULE: CCN(CC)CCNc1ccnc2cc(Cl)ccc12
PARAMETER_MEASURED: relative % inhibition
OBSERVED: 18.2%
--
MOLECULE: COc1cc(SC)ccc1C(=O)N1CCCC(C)C1 (stereo unspecified)
PARAMETER_MEASURED: relative % inhibition
OBSERVED: 5.64%
--
MOLECULE: CC(C)CCNCC(O)Cn1c2ccccc2c2ccccc21 (stereo unspecified)
PARAMETER_MEASURED: relative % inhibition
OBSERVED: 19%
--
MOLECULE: Cc1sc(NC(=O)c2ccccc2)c(C(c2cccs2)N2CCN(c3ccccc3)CC2)c1C (stereo unspecified)
PARAMETER_MEASURED: relative % inhibition
OBSERVED: 43.3%
--
MOLECULE: O=C(CSc1ccc2nnc(-c3cccc(F)c3)n2n1)Nc1ccc2c(c1)OCO2
PARAMETER_MEASURED: relative % inhibition
OBSERVED: 19%
--
MOLECULE: COC(=O)c1ccc(C2C3=C(O)CC(c4ccc(F)cc4)CC3=Nc3ccccc3N2C(=O)c2ccccc2)cc1 (stereo unspecified)
PARAMETER_MEASURED: relative % inhibition
OBSERVED: 88.6%
--
MOLECULE: O=C1C2=C(Nc3ccccc3SC2c2ccccc2)c2ccccc21 (stereo unspecified)
PARAMETER_MEASURED: relative % inhibition
OBSERVED: 61.6%
--
MOLECULE: Cc1ccc(Cl)cc1N1CCN(CCCNC(=O)C2CCN(c3nc4ccccc4[nH]3)CC2)CC1
PARAMETER_MEASURED: relative % inhibition
OBSERVED: 28.3%
--
MOLECULE: COc1ccc(-c2nc(N3CCN(C(=O)C4CCCCC4)CC3)c3c4c(sc3n2)CCCC4)cc1
PARAMETER_MEASURED: relative % inhibition
OBSERVED: 92.2%
--
MOLECULE: CCn1nc(-c2ccc(C(=O)OC)cc2)nc2c(=O)n(C)c(=O)nc1-2
PARAMETER_MEASURED: relative % inhibition
OBSERVED: 68%
--
MOLECULE: COc1ccc(C(=O)Nc2ccc3nc(N4CCCCC4)cc(C)c3c2)cc1OC
PARAMETER_MEASURED: relative % inhibition
OBSERVED: 3.3%
--
MOLECULE: Cc1ccc2c(C)nc(Nc3nc(C)cc(-c4ccccc4)n3)nc2c1
PARAMETER_MEASURED: relative % inhibition
OBSERVED: 111%
--
MOLECULE: COc1ccc2c(c1OC)C(=O)N1c3ccccc3N=C(c3ccc(C)cc3)CC21 (stereo unspecified)
PARAMETER_MEASURED: relative % inhibition
OBSERVED: -8.16%
--
MOLECULE: CCOC(=O)C1=CN(C)C=C(C(=O)OCC)C1c1cc(Br)c(OCC)c(OC)c1
PARAMETER_MEASURED: relative % inhibition
OBSERVED: 16.5%

====

# Test system: P. falciparum NF54-pfs16-GFP early (I-III) stage gametocytes
# ASSAY_TEXT: relative % inhibition of viable gametocyte number; higher = more gametocytocidal
# STATED_CONDITIONS: 0.5 µM; stage: early (I-III) gametocyte; incubation 72 h
PARAMETER_MEASURED: relative % inhibition

COMPOUND: Nc1nc(Nc2cccc(F)c2)nc2ccccc12
OBSERVED: 5.49%
//
COMPOUND: Cc1[nH]c(-c2ccc(F)cc2)cc1C(=O)NC1CCN(Cc2ccccc2)CC1
OBSERVED: 14.7%
//
COMPOUND: O=C(Nc1cccc(-c2nc3ccccc3[nH]2)c1)c1cccc(NC(=O)c2ccco2)c1
OBSERVED: 12.9%
//
COMPOUND: CCCCc1ccc(NS(=O)(=O)c2cc3c4c(c2)CCN4C(=O)CC3)cc1
OBSERVED: 12.3%
//
COMPOUND: CCCN(CCC)CCCNC(=O)c1cc2c(-c3ccc(OC)c(OC)c3)nn(C)c2s1
OBSERVED: 29.6%
//
COMPOUND: Nc1ccc(-c2nc3cc(Oc4ccc(Oc5ccc6[nH]c(-c7ccc(N)cc7)nc6c5)cc4)ccc3[nH]2)cc1
OBSERVED: 13.7%
//
COMPOUND: Cc1cccc(-n2ncc3c(=O)[nH]c(-n4nc(C)cc4NC(=O)c4cc5ccccc5o4)nc32)c1
OBSERVED: -5.22%
//
COMPOUND: Oc1c(CN2CCN(c3ccccc3F)CC2)cc(Br)c2cccnc12
OBSERVED: 15.7%
//
COMPOUND: CCOc1ccc(C=Cc2nc(=O)c3ccccc3o2)cc1
OBSERVED: 4.08%
//
COMPOUND: COc1ccc(C=C2SC(=N)N(c3ccccc3OC)C2=O)cc1
OBSERVED: 11%
//
COMPOUND: Nc1ccn(C2O[C@H](CO)[C@@H](O)[C@H]2O)c(=O)n1 (stereo partly drawn)
OBSERVED: -12.7%
//
COMPOUND: O=C(NC1CCN(Cc2ccccc2)CC1)c1cc(-c2ccncc2)nc2ccc(Cl)cc12
OBSERVED: 17.7%
//
COMPOUND: OC(CNC1CCCCC1)Cn1c2ccccc2c2ccccc21 (stereo not drawn)
OBSERVED: 14.8%
//
COMPOUND: CCc1c(C)c(=N)c2ccccc2n1C
OBSERVED: -1.08%
//
COMPOUND: CC1CC2=C(CC1CNCCCN(C)C)C(C)(C)CCC2 (stereo not drawn)
OBSERVED: 33.8%
//
COMPOUND: Cc1ccc(F)cc1NC(=O)c1cc(Cl)ccc1Nc1ccccc1
OBSERVED: 23.8%
//
COMPOUND: CCOc1ccc(-c2nc(NC(=O)c3cccc(S(C)(=O)=O)c3)sc2C)cc1
OBSERVED: 17.8%
//
COMPOUND: Cc1ccccc1OCCSc1nc2ccc(NC(=O)c3ccccc3)cc2s1
OBSERVED: 24.2%
//
COMPOUND: COc1ccc(-c2nonc2NC(=O)c2cccc(C)c2)cc1OC
OBSERVED: 15.3%
//
COMPOUND: Cc1cccc(N2C(=O)C3C(C2=O)C2(c4ccccc4)C(=O)C3(c3ccccc3)C(c3ccc4c(c3)OCO4)=C2c2ccc3c(c2)OCO3)c1 (stereo not drawn)
OBSERVED: 56.2%
//
COMPOUND: Cc1ccc(-c2cc3c(nn2)-c2ccccc2C3=O)cc1
OBSERVED: 2.74%
//
COMPOUND: Cc1ccc(Cn2c(N3CCC(C(=O)NCc4cccs4)CC3)nc3ccccc32)cc1
OBSERVED: 10.4%
//
COMPOUND: O=C(NCc1ccco1)C1CCN(S(=O)(=O)c2ccc(Br)cc2)CC1
OBSERVED: -6.48%
//
COMPOUND: CCN(CC)S(=O)(=O)c1ccc(-c2csc(Nc3ccc(C)c(C)c3)n2)cc1
OBSERVED: 28%
//
COMPOUND: Cc1ccc(CSCc2ccc(C(=O)NC3CC3)o2)cc1
OBSERVED: 1.49%
//
COMPOUND: COc1ccc(C=C2SC(Nc3ccc(F)cc3)=NC2=O)c(OC)c1
OBSERVED: 2.18%
//
COMPOUND: COc1ccc(Nc2nc(NN=Cc3ccc(O)cc3)nc(Nc3ccc([N+](=O)[O-])cc3)n2)cc1
OBSERVED: -0.568%
//
COMPOUND: Brc1ccc(Nc2nc3ccccc3nc2Nc2ccc(Br)cc2)cc1
OBSERVED: 38.5%
//
COMPOUND: O=C1c2ccccc2-c2nnc(-c3ccc(Br)cc3)cc21
OBSERVED: 16.6%
//
COMPOUND: Cc1ccc(Nc2nc(N)c3ccccc3n2)cc1Cl
OBSERVED: -26.6%
//
COMPOUND: Cc1cc(Nc2cccc(F)c2)nc(NCc2ccccc2)n1
OBSERVED: 28.5%
//
COMPOUND: CC(=O)c1sc(NC(=O)Nc2ccc(C)cc2C)nc1C
OBSERVED: 30.3%
//
COMPOUND: CCOc1ccccc1CNC(=O)C1c2ccccc2C(=O)N(CC(C)C)C1c1cccs1 (stereo not drawn)
OBSERVED: 6.2%
//
COMPOUND: O=C(Nc1ccccc1O)c1ccc(-c2ccc(Cl)cc2Cl)o1
OBSERVED: 21.2%
//
COMPOUND: c1ccc2cc3c(Nc4ccc(N5CCOCC5)cc4)ccnc3cc2c1
OBSERVED: -11.9%
//
COMPOUND: N=c1c2ccccc2nnn1-c1cccc(C(F)(F)F)c1
OBSERVED: 1.39%
//
COMPOUND: CC(C)CNC(=O)c1c(N)n(CCc2ccccc2F)c2nc3ccccc3nc12
OBSERVED: -1.27%
//
COMPOUND: CCC(=O)Nc1nnc(Cc2ccc(OC)c(OC)c2)s1
OBSERVED: 16.8%
//
COMPOUND: COc1ccccc1N=C1C(=O)c2ccccc2C(O)=C1N1CCCCC1
OBSERVED: 21.8%
//
COMPOUND: CC(=O)c1ccc(NC(=O)CSc2nc(-c3ccccc3Cl)ns2)cc1
OBSERVED: 3.99%
//
COMPOUND: CCOC(=O)C1=C(C)N=c2sc(=Cc3cc(Cl)ccc3O)c(=O)n2C1c1ccc(OC)cc1 (stereo not drawn)
OBSERVED: 105%
//
COMPOUND: CN1C=C(c2ccc3ccccc3n2)C(c2c[nH]c3ccccc23)c2ccccc21 (stereo not drawn)
OBSERVED: 16.1%
//
COMPOUND: COc1ccc(Br)cc1C1Nc2ccc3ccccc3c2C2=C1C(=O)CC(c1ccccc1)C2 (stereo not drawn)
OBSERVED: 27.7%
